Test system: tetA promoter (PtetA)-lacZ reporter in E. coli KM3
Type: cell-based
Conditions: M9 assay plates, no inducer, 84 hr at 30° C., colony color intensity by ImageJ
Reported Control 84 hr (colony color intensity, background activity without inducer) values for the following molecules.
Number only, please.

molecule="L6-4D10 (protein, Sulfonylurea responsive repressor L6-4D10) MGSRLDKSKVINSALELLNEVGIEGLTTRKLAQKLGVEQPTLYWHVKNKRALLDALAIEMMDRHQTHYCPLEGESWQDFLRNNAKSMRCALLSHRDGAKVCLGTRWTEKQYESAENMLAFLCQQGFSLENALYAVSAVRVFTLGCVLFDQESQVAKEERETPTTASMPPLLRQAWELKDHQGAEPAFLFGLELIICGLEKQLKCESGS" recorded_measurement=5.0

Next item in the queue.
Form field Control 84 hr (colony color intensity, background activity without inducer), entry L6-2D07 (protein, Sulfonylurea responsive repressor L6-2D07) MGSRLDKSKVINSALELLNEVGIEGLTTRKLAQKLGVEQPTLYWHVKNKRALLDALAIEMMDRHQTHFCPLEGESWQDFLRNTAKSMRCALLSHRDGAKVCLGTRWTEQQYETAENMLAFLCQQGFSLENALYAMSAVRVFTLGCVLFDQESQVAKEERETPTTASMPPLVRQAWELKDHQGAEPAFLFGLELIICGLEKQLKCESGS : 5.8
